tested-system: SMARCA4 (Homo sapiens, UniProt P51532)
Construct: SMARCA2/SMARCA4 protein degradation selectivity in MV4-11 cells; endogenous in cells; host or cells: MV4-11
Sequence (P51532 whole entry): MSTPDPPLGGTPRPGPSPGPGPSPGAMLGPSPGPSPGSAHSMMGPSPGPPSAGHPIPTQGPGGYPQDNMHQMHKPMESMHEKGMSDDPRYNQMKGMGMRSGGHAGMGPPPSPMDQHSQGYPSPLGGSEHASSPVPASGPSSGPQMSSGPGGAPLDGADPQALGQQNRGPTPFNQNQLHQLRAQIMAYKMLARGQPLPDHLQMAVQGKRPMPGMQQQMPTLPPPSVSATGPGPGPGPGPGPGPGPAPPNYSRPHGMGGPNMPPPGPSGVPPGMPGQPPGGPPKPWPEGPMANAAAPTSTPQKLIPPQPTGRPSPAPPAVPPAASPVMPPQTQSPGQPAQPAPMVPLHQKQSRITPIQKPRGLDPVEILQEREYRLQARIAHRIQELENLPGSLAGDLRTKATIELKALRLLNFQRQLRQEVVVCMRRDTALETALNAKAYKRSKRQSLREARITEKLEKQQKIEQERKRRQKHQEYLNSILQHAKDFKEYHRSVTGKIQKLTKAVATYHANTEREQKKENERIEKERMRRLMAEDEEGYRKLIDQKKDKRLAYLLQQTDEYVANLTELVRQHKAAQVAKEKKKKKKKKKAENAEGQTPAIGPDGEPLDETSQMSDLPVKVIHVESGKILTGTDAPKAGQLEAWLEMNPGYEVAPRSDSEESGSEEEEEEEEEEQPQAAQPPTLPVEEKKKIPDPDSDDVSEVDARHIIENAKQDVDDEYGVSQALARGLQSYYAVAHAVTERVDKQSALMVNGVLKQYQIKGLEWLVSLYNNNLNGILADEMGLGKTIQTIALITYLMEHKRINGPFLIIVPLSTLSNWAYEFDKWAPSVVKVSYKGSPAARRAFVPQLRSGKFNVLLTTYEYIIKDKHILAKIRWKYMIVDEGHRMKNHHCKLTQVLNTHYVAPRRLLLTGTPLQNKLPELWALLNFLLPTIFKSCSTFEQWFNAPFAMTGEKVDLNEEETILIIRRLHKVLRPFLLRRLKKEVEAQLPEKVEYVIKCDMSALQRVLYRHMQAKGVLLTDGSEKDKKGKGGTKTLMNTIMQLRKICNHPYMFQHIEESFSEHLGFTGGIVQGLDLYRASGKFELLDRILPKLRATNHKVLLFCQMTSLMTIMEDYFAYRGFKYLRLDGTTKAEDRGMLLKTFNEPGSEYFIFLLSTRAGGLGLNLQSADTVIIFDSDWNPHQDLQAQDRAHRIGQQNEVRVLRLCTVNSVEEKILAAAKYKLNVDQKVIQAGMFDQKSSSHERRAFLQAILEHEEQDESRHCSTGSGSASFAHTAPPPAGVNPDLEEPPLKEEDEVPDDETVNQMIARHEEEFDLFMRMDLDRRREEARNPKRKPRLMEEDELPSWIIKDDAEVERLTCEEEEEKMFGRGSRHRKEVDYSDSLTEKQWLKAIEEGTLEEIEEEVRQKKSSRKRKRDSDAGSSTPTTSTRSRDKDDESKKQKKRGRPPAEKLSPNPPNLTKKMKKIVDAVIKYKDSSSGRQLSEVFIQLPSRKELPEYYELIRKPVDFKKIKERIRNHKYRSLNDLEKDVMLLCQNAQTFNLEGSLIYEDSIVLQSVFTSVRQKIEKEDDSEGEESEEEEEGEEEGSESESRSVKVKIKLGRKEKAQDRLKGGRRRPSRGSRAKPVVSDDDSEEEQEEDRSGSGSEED
measurement-description: SMARCA4 Western blot degradation in MV4-11 cells
Type: cell-based
condition-label: MV4-11, MV4-11 cells, 24 h; read-out: SMARCA4 MSD MV411 degradation 24 h: average Dmax %
parameter-measured: Dmax

C#Cc1ccc(CNC(=O)[C@@H]2C[C@@H](O)CN2C(=O)[C@@H](NC(=O)[C@H]2CCC3(CC2)C[C@H](N2CCC(N4CC5(CC(N6CCN7c8cc(-c9ccccc9O)nnc8NC[C@H]7C6)C5)C4)CC2)C3)C(C)(C)C)c(Cl)c1 (single isomer, unassigned) | < 50%
C#Cc1ccc2c(c1)OCC[C@@H]2NC(=O)[C@@H]1C[C@@H](O)CN1C(=O)[C@@H](NC(=O)N1CC2(CC(N3CCC(c4cnc(N5CCc6[nH]c7nnc(-c8ccccc8O)cc7c6[C@H]5C)nc4)CC3)C2)C1)C(C)(C)C (single isomer, unassigned) | < 50%
Cc1ncsc1-c1ccc(CNC(=O)[C@@H]2C[C@@H](O)CN2C(=O)[C@@H](NC(=O)[C@H]2CC3(CC[C@H](N4CCN(c5cnc(N6CCc7[nH]c8nnc(-c9ccccc9O)cc8c7[C@H]6C)nc5)CC4)CC3)C2)C(C)(C)C)cc1 (single isomer, unassigned) | < 50%
C#Cc1ccc(CNC(=O)[C@@H]2C[C@@H](O)CN2C(=O)[C@@H](NC(=O)[C@H]2CCC3(CC2)C[C@H](N2CCC(c4cnc(N5CCN6c7cc(-c8ccccc8O)nnc7NC[C@H]6C5)nc4)CC2)C3)C(C)(C)C)c(OC)c1 (single isomer, unassigned) | 70 to 90%

Problem: Tell me its Dmax given Cc1ncsc1-c1ccc(CNC(=O)[C@@H]2C[C@@H](O)CN2C(=O)[C@@H](NC(=O)[C@H]2CC3(CC[C@H](N4CCC(c5cnc(N6CCN7c8cc(-c9ccccc9O)nnc8NC[C@H]7C6)nc5)CC4)CC3)C2)C(C)(C)C)cc1 (single isomer, unassigned) as the entry.
Result: 70 to 90%

Problem: Tell me its Dmax given Cc1ncsc1-c1ccc(CNC(=O)[C@@H]2C[C@@H](O)CN2C(=O)[C@@H](NC(=O)C2(F)CC2)C(C)(C)C)c(OCCCCN2CCC(c3ccnc(N4CCN5c6cc(-c7ccccc7O)nnc6NC[C@H]5C4)n3)CC2)c1 (single isomer, unassigned) as the entry.
Result: > 90%

Problem: Tell me its Dmax given "C#Cc1ccc(CNC(=O)[C@@H]2C[C@@H](O)CN2C(=O)[C@@H](NC(=O)N2CC3(CC(N4CCC(c5cnc(N6CCc7[nH]c8nnc(-c9ccccc9O)cc8c7[C@H]6C)nc5)CC4)C3)C2)C(C)(C)CCN2CCNCC2)cc1" as the entry.
Result: < 50%

Problem: Tell me its Dmax given C#Cc1ccc(CNC(=O)[C@@H]2C[C@@H](O)CN2C(=O)[C@@H](NC(=O)[C@H]2CCC3(CC2)C[C@H](N2CCC(c4ccc(N5CCN6c7cc(-c8ccccc8O)nnc7NC[C@H]6C5)nc4)CC2)C3)C(C)(C)C)cc1 (single isomer, unassigned) as the entry.
Result: < 50%

----------
List of Dmax values.
tested-system: SMARCA4 (Homo sapiens)
Construct: SMARCA2/SMARCA4 protein degradation selectivity in MV4-11 cells; endogenous in cells; host or cells: MV4-11
measurement-description: SMARCA4 Western blot degradation in MV4-11 cells
Assay type: cell-based
condition-label: MV4-11, MV4-11 cells, 24 h; read-out: SMARCA4 MSD MV411 degradation 24 h: average Dmax %

In the examples that follow, each entry is paired with its recorded Dmax.
C#Cc1ccc(CNC(=O)[C@@H]2C[C@@H](O)CN2C(=O)[C@@H](NC(=O)C2CCN(CC3CCC(N4CCC(N5CCc6[nH]c7nnc(-c8ccccc8O)cc7c6[C@H]5C)CC4)CC3)CC2)C(C)(C)C)cc1 (stereo partly shown) [I-197] | < 50%
C#Cc1ccc(CNC(=O)[C@@H]2C[C@@H](O)CN2C(=O)[C@@H](NC(=O)[C@H]2CC3(CC[C@H](N4CCN(c5cnc(N6CCc7[nH]c8nnc(-c9ccccc9O)cc8c7[C@H]6C)nc5)CC4)CC3)C2)C(C)(C)C)cc1 (single isomer, unassigned) [I-285] | 70 to 90%
C#Cc1ccc2c(c1)OCC[C@H]2NC(=O)[C@@H]1C[C@@H](O)CN1C(=O)[C@@H](NC(=O)N1CC2(CC(N3CCC(c4cnc(N5CCc6[nH]c7nnc(-c8ccccc8O)cc7c6[C@H]5C)nc4)CC3)C2)C1)C(C)(C)C (single isomer, unassigned) [I-236] | < 50%

Next up:
Problem: Tell me its Dmax given C#Cc1ccc(CNC(=O)[C@@H]2C[C@@H](O)CN2C(=O)[C@@H](NC(=O)N2CC3(CC(N4CCC(c5cnc(N6CCc7[nH]c8nnc(-c9ccccc9O)cc8c7[C@H]6C)nc5)CC4)C3)C2)C(C)(C)C)cc1F [I-310] as the entry.
Result: > 90%
